Tested on: ACHN renal
EXPERIMENT_SUMMARY: NCI tumour cell line growth inhibition, 48 h
Documented TGI across a set of molecules

Consider the reported TGI for these molecules:
[
  {
    "MOLECULE": "O=c1[nH]nc(Cc2ccc(Cl)cc2)n1Nc1ccccc1",
    "TGI": "> 100 µM"
  },
  {
    "MOLECULE": "C[N+](C)(C)C(Cc1c[nH]c(=S)[nH]1)C(=O)O (stereo not given)",
    "TGI": "> 100 µM"
  },
  {
    "MOLECULE": "COc1ccc(C(NCCNC(c2ccc(OC)c(OC)c2)c2cc3c(cc2O)OCO3)c2cc3c(cc2O)OCO3)cc1OC (stereo not given)",
    "TGI": "7.95 µM"
  },
  {
    "MOLECULE": "O=C(Nc1ccc(-n2cc(-c3ccncc3)c(-c3ccc(O)c(Cl)c3)n2)cc1)c1ccc(Cl)c(Cl)c1",
    "TGI": "> 32.5 µM"
  },
  {
    "MOLECULE": "COC(=O)[C@H]1[C@H](OC(=O)[C@@H](OC)c2ccccc2)ON2CC[C@@H](OC(=O)c3ccccc3)[C@H]12",
    "TGI": "25.6 µM"
  }
]

Consider the additional molecule presented here.
What value of TGI has been reported for the following molecule? `CNS(=O)(=O)NN(C)S(=O)(=O)c1ccc(C)cc1`
> 100 µM

###

This listing pairs molecules with measured TGI.
Test system: SK-OV-3 ovarian
EXPERIMENT_SUMMARY: NCI tumour cell line growth inhibition, 48 h

[
  {
    "MOLECULE": "CCN(CC)CCSc1nc2c([N+](=O)[O-])cccc2[nH]1",
    "ASSAY_VALUE": "> 100 µM"
  },
  {
    "MOLECULE": "CN(C)c1ccc(N=C(C#N)c2nc(N)nc(N3CCOCC3)n2)cc1",
    "ASSAY_VALUE": "> 100 µM"
  },
  {
    "MOLECULE": "Cc1ccc(NC(=O)CCC(=O)C2CC(=O)CCC2=O)cc1C (stereo not given)",
    "ASSAY_VALUE": "> 100 µM"
  }
]

I am curious: what TGI value has been reported for `O=C(O)Cc1ccccc1` ?
> 2000 µM

What measured TGI goes with `CC(C)(C)OC(=O)N1CCC[C@H]1CSC[C@@H]1CCCN1C(=O)OC(C)(C)C` ?
> 100 µM

// TGI lookup, key: `CCN(CC)c1ccc(/C=C/C2=[N+](C)c3ccccc3C2(C)C)cc1`
2.79 µM

If you can, please state the reported TGI value of `CC(C)Cn1cnnc1NS(=O)(=O)c1cc(C(=O)NN)c(Cl)cc1S` .
> 10 µM

Sample C[C@H]1ON2CCC[C@@H]2[C@@H]1C(=O)N1C2CC3CCC2(CS1(=O)=O)C3(C)C (stereo not given in full) — what was its TGI?
> 100 µM

// query TGI value for entry `O=[N+]([O-])c1ccc2nc(/C=C(\O)c3ccccc3)c(/C=C(\O)c3ccc(Cl)cc3)nc2c1`
> 100 µM

Report TGI for CC(C)=CCc1c(O)c(CC=C(C)C)c2oc3c(c(=O)c2c1O)C(C=C(C)C)Oc1cc(O)ccc1-3 (stereo not given) please.
29 µM

Can you share its TGI? I mean this molecule: `O=C1/C(=C/c2ccccc2Cl)COc2ccccc21`
72.5 µM

Give its TGI value. Item: `Cc1ccc2c(c1)C(=O)c1ccc(C)nc1C2=O`
> 100 µM

Consider the molecule `COc1ccccc1NS(=O)(=O)c1cc(C(C)(C)C)ccc1OCCOc1ccc(C(C)(C)C)cc1S(=O)(=O)Nc1ccccc1OC` and give its measured TGI.
> 100 µM

###

Tested on: IGROV1 ovarian
EXPERIMENT_SUMMARY: NCI tumour cell line growth inhibition, 48 h
MEASURE: TGI (µM)
Respond with the bare value in µM.

Solved entries:
[
  {
    "COMPOUND": "NCCCNCCCNc1nc2ccccc2c2[nH]c3ccccc3c12",
    "UNITS_TEXT": "µM",
    "TGI": 1.03
  },
  {
    "COMPOUND": "CCOc1ccc(NC(=O)/C(=C/c2ccccc2)C(C)=O)cc1",
    "UNITS_TEXT": "µM",
    "TGI": 29.1
  },
  {
    "COMPOUND": "CC1(C)CC[C@]2(C(=O)O)CCC3(C)C(=CCC4[C@@]5(C)CC[C@H](OC6OCC(O)C(O)C6OC6OC(CO)C(O)C(O)C6O)C(C)(C)C5CC[C@]43C)C2C1 (some centres undefined)",
    "UNITS_TEXT": "µM",
    "TGI": 5.23
  }
]

Proceeding to the next compound to report its TGI.
Record request: TGI value, item CC(C)=CCC/C(C)=C/CC/C(C)=C/C(O)c1ccccc1 (centres undefined)
37.2

###

System: HCT-116 colon
EXPERIMENT_SUMMARY: NCI tumour cell line growth inhibition, 48 h
# TGI >= 20 µM gives true (1), anything below gives false (0)

Examples with answers:
[
  {
    "COMPOUND": "CC[C@]12C=CCN3CC[C@]4(C(=C(C(=O)OC)C1)Nc1ccccc14)[C@@H]32",
    "LABEL_CLASS": "false (0)"
  },
  {
    "COMPOUND": "Clc1ccc(C2=NN(c3ccccc3)C3c4cc(Br)ccc4OCC23)cc1 (centres undefined)",
    "LABEL_CLASS": "true (1)"
  },
  {
    "COMPOUND": "CCOP(=O)(OCC)OC1CC(n2cnc3c(N(CC)CC)ncnc32)OC1CO[Si](C)(C)C(C)(C)C (centres undefined)",
    "LABEL_CLASS": "true (1)"
  },
  {
    "COMPOUND": "Oc1ccc(-c2nc(-c3ccc(F)cc3)c(-c3ccncc3)[nH]2)cc1",
    "LABEL_CLASS": "true (1)"
  },
  {
    "COMPOUND": "CCOC(=O)CC(=O)Nc1c(C(=O)OCC)sc2nc(SC)nc(Nc3ccc(OC)c(OC)c3)c12",
    "LABEL_CLASS": "true (1)"
  },
  {
    "COMPOUND": "C=C1C(=O)OC2C3C(=C)[C@@H](OC(C)=O)CC3C(C)=CC(OC(=O)C(C)(O)C(C)OC(C)=O)[C@@H]12 (some centres undefined)",
    "LABEL_CLASS": "false (0)"
  },
  {
    "COMPOUND": "NC(=S)NS(=O)(=O)c1ccc(F)cc1",
    "LABEL_CLASS": "true (1)"
  }
]

Now look at this entry.
Is TGI at least 20 µM? Consider CC1(C)CC[C@]2(C(=O)O)CCC3(C)C(=CCC4[C@@]5(C)CC[C@H](OC6OCC(O)C(O)C6OC6OC(CO)C(O)C(O)C6O)C(C)(C)C5CC[C@]43C)C2C1 (some centres undefined)
false (0)

###

Tested on: MOLT-4 leukemia
EXPERIMENT_SUMMARY: NCI tumour cell line growth inhibition, 48 h
MEASURE: TGI

Consider the worked cases shown below.
[
  {
    "COMPOUND": "Cc1oc2nc(N(C)C)n3c(C)nnc3c2c1C",
    "ASSAY_VALUE": "> 100 µM"
  },
  {
    "COMPOUND": "N/C(=N/O)c1cn(C2OC(CO)C(O)C2O)c2ncnc(NO)c12 (stereo unspecified)",
    "ASSAY_VALUE": "0.395 µM"
  }
]

Return reported TGI; argument: CC1(C)OCC(C2OC(On3nnc4ccc(Cl)cc43)C3OC(C)(C)OC23)O1 (stereo unspecified)
> 100 µM

Given the entry `O=C(O)c1ccccc1/C=C1\Cc2ccc3c(c2C1=O)CCCC3` , report its measured TGI.
58.6 µM

Item under review: COc1cc([C@@H]2c3cc4c(cc3[C@@H](N=Cc3ccc(C(=O)O[C@H]5C[C@H]6OC[C@@]6(OC(C)=O)[C@H]6[C@H](OC(=O)c7ccccc7)[C@]7(O)C[C@H](OC(=O)[C@H](OC(=O)c8ccc(C=N[C@@H]9c%10cc%11c(cc%10[C@@H](c%10cc(OC)c(O)c(OC)c%10)[C@H]%10C(=O)OC[C@@H]%109)OCO%11)cc8)[C@@H](NC(=O)c8ccccc8)c8ccccc8)C(C)=C([C@@H](OC(C)=O)C(=O)[C@]56C)C7(C)C)cc3)C3COC(=O)C32)OCO4)cc(C)c1O (stereo partly specified) . Reported TGI?
> 50 µM

I'd like to know its TGI. The compound in question is `N#Cc1c(-c2ccccc2)cc(Nc2ccc(F)cc2)n2c1nc1ccccc12`
> 100 µM

###

Tested on: COLO 205 colon
EXPERIMENT_SUMMARY: NCI tumour cell line growth inhibition, 48 h
MEASURE: TGI (µM)
Note: unit µM is implicit; provide only the numeric part.

Would you please look over these solved cases?
[
  {
    "MOLECULE": "C[CH2][Sn]([CH2]C)([O]C(=O)c1cc(OC)c(OC)c(OC)c1)[O][Sn]([CH2]C)([CH2]C)[O]C(=O)c1cc(OC)c(OC)c(OC)c1",
    "UNITS_TEXT": "µM",
    "ASSAY_VALUE": 43.6
  },
  {
    "MOLECULE": "CCOC(=O)C1=C(O)CSC1=Nc1ccc(N=C2SCC(O)=C2C(=O)OCC)cc1",
    "UNITS_TEXT": "µM",
    "ASSAY_VALUE": 32.5
  },
  {
    "MOLECULE": "COc1ccc(C2=NN(c3ccc(S(N)(=O)=O)cc3)C(c3ccc(Cl)cc3)C2)c(O)c1 (centres undefined)",
    "UNITS_TEXT": "µM",
    "ASSAY_VALUE": 13.3
  }
]

Proceeding to the next molecule to report its TGI.
What does the record list as TGI for `c1ccc(COc2ccc(Nc3ncnc4ccc(-c5ccco5)cc34)cc2)cc1` ?
17.7

The measured values listed here are drawn from PubChem BioAssay (NCI).
